# System: HCT-116
# Assay summary: NCI tumour cell line growth inhibition, 48 h
Activity calls are given as the source filed them. Cut-off read from the data, not from the text of the source: active = GI50 up to about 1.1 µM and inactive = higher.
Quantity: GI50

Cc1csc2nc(-c3cc([N+](=O)[O-])c(Cl)cc3Cl)c(/C=N/N=C(N)N)n12 : 16.7 µM (inactive)
NC(=O)C1Cc2cc3c(cc21)OCO3 (stereo not given) : > 100 µM (inactive)
Nc1ccc2c(=S)c3ccccc3[nH]c2c1 : 24.3 µM (inactive)

// recorded GI50 for Fc1ccccc1C1CC(c2ccc3ccccc3c2)=Nc2ccccc2S1 (stereo not given) : > 100 µM (inactive)

// recorded GI50 for CC(c1ccccc1)/[N+]([O-])=C/c1ccccc1 (stereo not given) : > 100 µM (inactive)

// recorded GI50 for `c1ccc2c(c1)SCCCS2` : > 100 µM (inactive)

----------
# Tested on: DU-145
# Assay summary: NCI tumour cell line growth inhibition, 48 h
Active and inactive are the calls of the source. Cut-off read from the data, not from the text of the source: active = GI50 up to about 1.1 µM and inactive = higher.
Quantity: GI50

// recorded GI50 for c1ccc2c(c1)NC1(N3CCCCC3)CCCCC21 (stereo not drawn) : 57.9 µM (inactive)

// recorded GI50 for C=C1C(=O)OC2CC(=C)C3CC=C(C)C3CC12 (stereo not drawn) : > 10 µM (inactive)

// recorded GI50 for CN(C)CC1CCC/C(=C\c2ccc(Cl)cc2)C1=O (stereo not drawn) : 15.5 µM (inactive)

----------
Each item that follows carries a reported GI50.
# Test system: NCI/ADR-RES
# Assay summary: NCI tumour cell line growth inhibition, 48 h
Active and inactive are the calls of the source. Cut-off read from the data, not from the text of the source: active = GI50 up to about 1.1 µM and inactive = higher.

Completed entries (count: 3):
CCCCCCCCCCCCCCCCNCC(O)CN (stereo not given) : 2.22 µM (inactive)
CC1OC(OC2C(O[C@H]3CC[C@@]4(C)C(=CC[C@H]5[C@@H]6C[C@@H]7O[C@]8(CC[C@@H](C)CO8)[C@@H](C)[C@@H]7[C@@]6(C)CC[C@@H]54)C3)OC(CO)C(OC3OC(CO)C(O)C3O)C2O)C(O)C(O)C1O (stereo not given in full) : 0.91 µM (active)
O=[As](O)(O)c1ccc2nc3cc([As](=O)(O)O)ccc3nc2c1 : > 100 µM (inactive)

// recorded GI50 for `COc1ccc(C(=O)/C=C/c2ccc(O)c(O)c2F)c(OC)c1` : 4.62 µM (inactive)

----------
# Test system: HOP-92
# Assay summary: NCI tumour cell line growth inhibition, 48 h
Activity calls are given as the source filed them. No stated cut-off is given here; in the data, active = GI50 up to about 1.1 µM and inactive = higher. Residues, ends and D or L forms follow the SMILES beside them. *: point of attachment. Ethyl(2-NMe3+) = C[N+](C)(C)CC*; Boc = CC(C)(C)OC(=O)*
Just give me one of these, please: true = active, false = inactive

Please review the entries below; each comes with its answer.
O=C(NNC(=O)/C(=C/c1cccc([N+](=O)[O-])c1)NC(=O)c1ccccc1)Nc1ccc(Cl)cc1 : false
CCOC(=O)c1nc2ccc(C(F)(F)F)cc2nc1Oc1ccc(OC)cc1 : false
CC(C)=NN/C(=N\c1ccc(Cl)cc1)NS(=O)(=O)c1cc(Cl)c(Oc2ccc([N+](=O)[O-])cc2Cl)c(Cl)c1 : false
CCC(CON(C)c1ccccc1)(SC)SC : false
O=C(CSc1nnc(-c2ccc(/N=C\c3ccc(Cl)cc3)cc2)o1)Nc1ccc(Cl)cc1Cl : false

Ask | Hi team, can someone confirm the assay call for `c1cc2cc(Cc3ccc4[nH]ccc4c3)ccc2[nH]1` ?
Reply | false

Ask | Hi team, can someone confirm the assay call for `O=C(N/C(=C\c1ccc(/C=C(\NC(=O)c2ccccc2)c2nc3c(O)nc(S)nc3[nH]2)cc1)c1nc2c(O)nc(S)nc2[nH]1)c1ccccc1` ?
Reply | false

Ask | Hi team, can someone confirm the assay call for Cc1cn(C2CCN(CC3COC(C)(C)O3)O2)c(=O)[nH]c1=O (stereo not drawn) ?
Reply | false

Ask | Hi team, can someone confirm the assay call for `Clc1ccc(/C(=C/c2ccccc2)Cn2ccnc2)cc1` ?
Reply | false

Ask | Hi team, can someone confirm the assay call for OCC1OC(n2cnc3cccnc32)CC1O (stereo not drawn) ?
Reply | false

Ask | Hi team, can someone confirm the assay call for CC(=O)OC[C@H]1[C@@H]2C(CC[C@]13CO3)OC(=O)CC(C)[C@]2(C)CCc1ccoc1 (stereo partly drawn) ?
Reply | false

Ask | Hi team, can someone confirm the assay call for CC(NC(=O)C(Cc1ccc(OCC[N+](C)(C)C)cc1)NC(=O)OC(C)(C)C)C(=O)NC(Cc1ccccc1)C(=O)NCC(N)=O (stereo not drawn) (Boc-Y(Ethyl(2-NMe3+))AFG-NH2; configuration not given here) ?
Reply | false

Ask | Hi team, can someone confirm the assay call for COc1cc(O)c2c(c1)C(=O)c1cc3c(c(O)c1C2=O)C(OC1OC(C)C(O)C(O)C1OC)C(OC)C(C)(O)C3=O (stereo not drawn) ?
Reply | true
